Test: in vitro
Settings: human, hepatocytes
Listing: CLhep predicted of selected compounds
experimental_endpoint: CLhep predicted (L/h/kg)

COCCOCCOCCOCCOCCNc1ccc([C@@H](CN2CCCC2)N(C)C(=O)Cc2ccc(Cl)c(Cl)c2)cc1 [compound 35]: 0.9
COCCOCCOCCNC(=O)O[C@H]1CCN(C[C@H](c2ccccc2)N(C)C(=O)Cc2ccc(Cl)c(Cl)c2)C1.Cl [compound 5]: 1.23
CN(C(=O)Cc1ccc(Cl)c(Cl)c1)[C@H](CN1CCCC1)c1ccccc1 [ICI-199,441, reference compound]: 1.18
COCCOCCOCCOCCOCCNC(=O)O[C@H]1CCN(C[C@H](c2ccccc2)N(C)C(=O)Cc2ccc(Cl)c(Cl)c2)C1.Cl [compound 6]: 1.2
COCCOCCOCCO[C@H]1CCN(C[C@H](c2ccccc2)N(C)C(=O)Cc2ccc(Cl)c(Cl)c2)C1.Cl [compound 4]: 1.16
CN(C(=O)C(c1ccccc1)c1ccccc1)[C@H](CN1CC[C@H](O)C1)c1ccccc1 [Asimadoline, asimadoline, reference compound]: 1.09
CCN(CCOC)C[C@H](c1ccccc1)N(C)C(=O)Cc1ccc(Cl)c(Cl)c1.Cl [compound 10]: 1.24
CN(C(=O)Cc1ccc(Cl)c(Cl)c1)[C@H](CN1CCCC1)c1ccc(OCCO)cc1.Cl [compound 36]: 0.99
CN(C(=O)Cc1ccc(Cl)c(Cl)c1)[C@H](CN1CCCC1)c1cccc(NS(=O)(=O)CCOCC(F)(F)F)c1.Cl [compound 19]: 0.702
COCCOCCOCCOCCOCCOc1ccc([C@@H](CN2CCCC2)N(C)C(=O)Cc2ccc(Cl)c(Cl)c2)cc1.Cl [compound 34]: 0.984

----------
Listing: pEC50 of selected compounds
Biological target: KOR (kappa opioid receptor) (Homo sapiens, UniProt P41145)
Sequence (P41145 whole entry): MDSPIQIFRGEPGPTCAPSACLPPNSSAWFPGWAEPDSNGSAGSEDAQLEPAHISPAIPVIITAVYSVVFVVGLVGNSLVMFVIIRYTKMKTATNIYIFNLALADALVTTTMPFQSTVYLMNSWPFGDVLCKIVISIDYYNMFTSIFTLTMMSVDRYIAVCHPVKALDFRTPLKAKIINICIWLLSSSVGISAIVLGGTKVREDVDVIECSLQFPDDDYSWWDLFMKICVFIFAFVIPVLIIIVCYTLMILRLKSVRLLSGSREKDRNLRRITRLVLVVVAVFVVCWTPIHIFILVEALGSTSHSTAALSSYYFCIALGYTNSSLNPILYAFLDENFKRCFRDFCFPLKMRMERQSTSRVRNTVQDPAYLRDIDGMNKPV
Assay: cell-based
pEC50: −log10 of the molar value.
experimental_endpoint: pEC50

COCCOCCOCCOCCOCCOCCOCCOC(=O)NC1(C(=O)Nc2cccc([C@@H](CN3CC[C@H](O)C3)N(C)C(=O)Cc3ccc(Cl)c(Cl)c3)c2)CC1: 9.96
COCCOCCOCCOCCOCCNC(=O)Nc1cccc([C@@H](CN2CCCC2)N(C)C(=O)Cc2ccc(Cl)c(Cl)c2)c1: 9.38
COCCOCCS(=O)(=O)Nc1cccc([C@@H](CN2CCCC2)N(C)C(=O)Cc2ccc(Cl)c(Cl)c2)c1: 9.82
COCCOCCOCCOCCOCCOc1ccc([C@@H](CN2CCCC2)N(C)C(=O)Cc2ccc(Cl)c(Cl)c2)cc1.Cl: 7.89
CCCCOCCOCCOCCS(=O)(=O)Nc1cccc([C@@H](CN2CCCC2)N(C)C(=O)Cc2ccccn2)c1: 7.41
COCCOCCOCCOCCOCCNC(=O)O[C@H]1CCN(C[C@H](c2ccccc2)N(C)C(=O)Cc2ccc(Cl)c(Cl)c2)C1.Cl: 7.25
CN(C(=O)Cc1ccc(Cl)c(Cl)c1)[C@H](CN1CC[C@H](OCC(=O)O)C1)c1ccccc1: 6.58
CN(C(=O)Cc1ccc(Cl)c(Cl)c1)[C@H](CN1CCCC1)c1ccc(OCCO)cc1.Cl: 10.54
CN(C(=O)Cc1ccc(Cl)c(Cl)c1)[C@H](CN1CC[C@H](OCCOCCO)C1)c1ccccc1: 7.84
CN(C(=O)Cc1ccc(Cl)c(Cl)c1)[C@H](CN1CC[C@H](OCCOCCOCC(=O)O)C1)c1ccccc1: 7.38
COCCOCC(=O)Nc1cccc([C@@H](CN2CC[C@H](O)C2)N(C)C(=O)C(c2ccccc2)c2ccccc2)c1: 8.30
CN(C(=O)Cc1ccc(Cl)c(Cl)c1)[C@H](CN1CC[C@H](O)C1)c1ccc(OCCO)cc1: 10.52
COCCOCCOCCOCCOCCN1CCN(C[C@H](c2ccccc2)N(C)C(=O)Cc2ccc(Cl)c(Cl)c2)CC1: 5.71
COCCOCCOCCOCCOCCNC(=O)Nc1cccc([C@@H](CN2CCCC2)N(C)C(=O)C(c2ccc(Cl)cc2)c2ccc(Cl)cc2)c1: 7.82

----------
Test: in vitro
Settings: rat, hepatocytes
Listing: CLhep predicted of selected molecules
experimental_endpoint: CLhep predicted (mL/min/kg)

COCCOCCOCCOCCOCCOc1ccc([C@@H](CN2CCCC2)N(C)C(=O)Cc2ccc(Cl)c(Cl)c2)cc1.Cl [compound 34]: 15.4
CN(C(=O)Cc1ccc(Cl)c(Cl)c1)[C@H](CN1CCCC1)c1ccccc1 [ICI-199,441, reference compound]: 44
CN(C(=O)C(c1ccccc1)c1ccccc1)[C@H](CN1CC[C@H](O)C1)c1ccccc1 [Asimadoline, asimadoline, reference compound]: 51
COCCOCCOCCNC(=O)O[C@H]1CCN(C[C@H](c2ccccc2)N(C)C(=O)Cc2ccc(Cl)c(Cl)c2)C1.Cl [compound 5]: 49.1
COCCOCCOCCO[C@H]1CCN(C[C@H](c2ccccc2)N(C)C(=O)Cc2ccc(Cl)c(Cl)c2)C1.Cl [compound 4]: 49
CCN(CCOC)C[C@H](c1ccccc1)N(C)C(=O)Cc1ccc(Cl)c(Cl)c1.Cl [compound 10]: 49.7

----------
experimental_endpoint: In vitro Hepatocyte Clearance, Rat % hep Blood flow (%)

COCCOCCOCCNC(=O)O[C@H]1CCN(C[C@H](c2ccccc2)N(C)C(=O)Cc2ccc(Cl)c(Cl)c2)C1.Cl [compound 5]: 82
COCCOCCOCCOCCOCCOc1ccc([C@@H](CN2CCCC2)N(C)C(=O)Cc2ccc(Cl)c(Cl)c2)cc1.Cl [compound 34]: 26
CN(C(=O)Cc1ccc(Cl)c(Cl)c1)[C@H](CN1CCCC1)c1ccccc1 [ICI-199,441, reference compound]: 73.0

----------
Target: recombinant human mu (MOR) opioid receptor (Homo sapiens)
Construct: expressed in transfected cells; host or cells: CHO-K1 cell membranes
Sequence (P35372 whole entry): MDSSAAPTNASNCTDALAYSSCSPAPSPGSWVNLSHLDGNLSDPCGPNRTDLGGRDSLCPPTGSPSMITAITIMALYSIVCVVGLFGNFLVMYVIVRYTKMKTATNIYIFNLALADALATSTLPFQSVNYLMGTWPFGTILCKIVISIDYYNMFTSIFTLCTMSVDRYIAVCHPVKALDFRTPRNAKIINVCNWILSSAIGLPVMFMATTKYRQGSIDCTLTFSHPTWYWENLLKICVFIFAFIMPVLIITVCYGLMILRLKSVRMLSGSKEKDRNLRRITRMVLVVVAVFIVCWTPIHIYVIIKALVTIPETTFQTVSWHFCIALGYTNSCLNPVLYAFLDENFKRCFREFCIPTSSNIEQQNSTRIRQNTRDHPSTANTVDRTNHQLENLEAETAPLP
Experiment: biochemical
Format: binding
Details: read-out: Mu receptor % inhibition at single concentration, % inhibition @ 10 μM
experimental_endpoint: inhibition at 10 µM (%)

CN(C(=O)Cc1ccc(Cl)c(Cl)c1)[C@H](CN1CC[C@H](OCCOCC(=O)O)C1)c1ccccc1: 4.9
COCCOCCOCCOCCOCCNC(=O)O[C@H]1CCN(C[C@H](c2ccccc2)N(C)C(=O)Cc2ccc(Cl)c(Cl)c2)C1.Cl: 20.6
CN(C(=O)Cc1ccc(Cl)c(Cl)c1)[C@H](CN1CCCC1)c1cccc(NS(C)(=O)=O)c1: 99.3
COCCOCCOCCOCCOCCO[C@H]1CCN(C[C@H](c2ccccc2)N(C)C(=O)C(c2ccccc2)c2ccccc2)C1: 36.9
COCCOCCOCCO[C@H]1CCN(C[C@H](c2cccc(NS(C)(=O)=O)c2)N(C)C(=O)Cc2ccc(Cl)c(Cl)c2)C1: 81.9
CN(C(=O)Cc1ccc(Cl)c(Cl)c1)[C@H](CN1CC[C@H](OCCOCCO)C1)c1ccccc1: 35.1
CN(C(=O)Cc1ccc(Cl)c(Cl)c1)[C@H](CN1CCCC1)c1cccc(NS(=O)(=O)C2CS(=O)(=O)CC2O)c1 (stereo partly shown): 90.2
COCCOCCOCCOCCOCCN1CCN(C[C@H](c2ccccc2)N(C)C(=O)Cc2ccc(Cl)c(Cl)c2)CC1: 9.6
CN(C(=O)Cc1ccc(Cl)c(Cl)c1)[C@H](CN1CC[C@H](OCCOCCOCCO)C1)c1ccccc1: 50.4
CCCCOCCOCCOCCS(=O)(=O)Nc1cccc([C@@H](CN2CCCC2)N(C)C(=O)Cc2ccccn2)c1: 85.5

----------
Target: recombinant human kappa (KOR) opioid receptor (Homo sapiens, UniProt P41145)
Assay: biochemical
experimental_endpoint: IC50

CN(C(=O)Cc1ccc(Cl)c(Cl)c1)[C@H](CN1CC[C@H](OCCOCCOCCO)C1)c1ccccc1 [compound 27]: 106 nM
COCCS(=O)(=O)Nc1cccc([C@@H](CN2CCCC2)N(C)C(=O)Cc2ccc(Cl)c(Cl)c2)c1 [compound 18]: 0.57 nM
COCCOCCOCCOCCOCCNc1ccc([C@@H](CN2CCCC2)N(C)C(=O)Cc2ccc(Cl)c(Cl)c2)cc1 [compound 35]: 24.7 nM
CN(C(=O)Cc1ccc(Cl)c(Cl)c1)[C@H](CN1CC[C@H](OCCO)C1)c1ccccc1 [compound 25]: 31.8 nM
COCCOCCOCCNC(=O)O[C@H]1CCN(C[C@H](c2ccccc2)N(C)C(=O)Cc2ccc(Cl)c(Cl)c2)C1.Cl [compound 5]: 1190 nM
CN(C(=O)Cc1ccc(Cl)c(Cl)c1)[C@H](CN1CC[C@H](OCCOCC(=O)O)C1)c1ccccc1 [compound 28]: 2100 nM
COCCOCCOCCOCCOCCNC(=O)Nc1cccc([C@@H](CN2CCCC2)N(C)C(=O)C(c2ccc(Cl)cc2)c2ccc(Cl)cc2)c1 [compound 16]: 62.7 nM

----------
Listing: In vitro Hepatocyte Clearance, Human % hep Blood flow of selected molecules
experimental_endpoint: In vitro Hepatocyte Clearance, Human % hep Blood flow

COCCOCCOCCOCCOCCNc1ccc([C@@H](CN2CCCC2)N(C)C(=O)Cc2ccc(Cl)c(Cl)c2)cc1 [compound 35]: 65%
COCCOCCOCCOCCOCCNC(=O)O[C@H]1CCN(C[C@H](c2ccccc2)N(C)C(=O)Cc2ccc(Cl)c(Cl)c2)C1.Cl [compound 6]: 86%
CN(C(=O)Cc1ccc(Cl)c(Cl)c1)[C@H](CN1CCCC1)c1cccc(NS(=O)(=O)CCOCC(F)(F)F)c1.Cl [compound 19]: 50%
COCCOCCOCCNC(=O)O[C@H]1CCN(C[C@H](c2ccccc2)N(C)C(=O)Cc2ccc(Cl)c(Cl)c2)C1.Cl [compound 5]: 88%
COCCOCCOCCOCCOCCOc1ccc([C@@H](CN2CCCC2)N(C)C(=O)Cc2ccc(Cl)c(Cl)c2)cc1.Cl [compound 34]: 71%
CN(C(=O)Cc1ccc(Cl)c(Cl)c1)[C@H](CN1CCCC1)c1ccccc1 [ICI-199,441, reference compound]: 85.0%
CN(C(=O)Cc1ccc(Cl)c(Cl)c1)[C@H](CN1CCCC1)c1ccc(OCCO)cc1.Cl [compound 36]: 71%
